Assay: qHTS for Inhibitors of human tyrosyl-DNA phosphodiesterase 1 (TDP1): qHTS in cells in presence of CPT; further: nearly all actives have a fitted effect of over 55% in size
Details: chicken DT40 Tdp1-/-;hTDP1 cells + 20 nM CPT, ATP luminescence, 48 h; series mostly up to 46.2 µM
Among all 420,000 compounds or so, about 50,000 (12%) were called active. Not shown: some 26% with an inconclusive outcome. The call rests on the fitted dose curve; in most records, active means well fitted inhibition curve with a large enough effect; inconclusive means small, poorly fitted or top-dose-only effect; inactive means flat fitted curve, though single readings scatter. Shown is part of a subset that was picked to be rich in actives.
Answer with one of the outcomes active, inactive

Before answering, review these 3 worked examples.
COc1ccccc1OC(=O)c1ccc(C)c(S(=O)(=O)N2CCOCC2)c1 ... inactive
CO[C@@H]1C[C@@H](C[C@H]2CC[C@H](C)[C@@H]([C@@H](C)C(=O)O)O2)O[C@]2(O[C@](C)([C@H]3CC[C@@](C)(C4OC([C@H]5O[C@@](O)(CO)[C@H](C)C[C@@H]5C)C[C@@H]4C)O3)C[C@H]2C)[C@@H]1C (some centres undefined) ... active
CCOc1ccc(-c2cc(C)[n+](CCN(CC)CC)c(-c3ccc(OCC)cc3)c2)cc1 ... active

Could you now look at the following compound, please?
Please share the test call associated with O=C(O)CCn1cc(C=C2C(=O)NC(=S)NC2=O)c(-c2cccc(Br)c2)n1 . inactive

====

Assay: qHTS for Inhibitors of human tyrosyl-DNA phosphodiesterase 1 (TDP1): qHTS in cells in presence of CPT; further: nearly all actives have a fitted effect of over 55% in size
Settings: chicken DT40 Tdp1-/-;hTDP1 cells + 20 nM CPT, ATP luminescence, 48 h; series mostly up to 46.2 µM
Screen size: about 420,000 compounds; about 50,000 (12%) were called active. Inconclusive results (about 26%) are left out. Calls follow the shape of the dose curve; as a rule, active = well fitted inhibition curve with a large enough effect; inconclusive = small, poorly fitted or top-dose-only effect; inactive = flat fitted curve, though single readings scatter. This excerpt belongs to a sample that is enriched for actives.
Answer with one of the outcomes active, inactive

CCCCCCCCCCCCn1ccc(=N)cc1 ... active

Could you now look at the following compound, please?
Please share the test call associated with CCN(N=Nc1nonc1OC)c1nonc1OC . inactive

====

Experiment: qHTS for Inhibitors of human tyrosyl-DNA phosphodiesterase 1 (TDP1): qHTS in cells in presence of CPT; further: nearly all actives have a fitted effect of over 55% in size
Details: chicken DT40 Tdp1-/-;hTDP1 cells + 20 nM CPT, ATP luminescence, 48 h; series mostly up to 46.2 µM
Among all 420,000 compounds or so, about 50,000 (12%) were called active. Another 26% or so got no clear call; they are omitted. The call rests on the fitted dose curve; in most records, active means well fitted inhibition curve with a large enough effect; inconclusive means small, poorly fitted or top-dose-only effect; inactive means flat fitted curve, though single readings scatter. This is one part of a sample in which actives are shown more often than they occur.
Answer with one of the outcomes True for active, False for inactive

Before answering, review these 5 worked examples.
Cn1c(O)c(C=NCCN2CCNCC2)c(=O)n(C)c1=O ... False
CN(Cc1cccc2ncccc12)C(=O)c1cnn(-c2nccc(-c3ccccc3F)n2)c1C1CC1 ... True
CCOC(=O)C(O)(c1ccc(N)c(OC)c1)C(F)(F)F (stereo unspecified) ... False
CCN(CC)c1ccc([N+](=O)[O-])c2cccnc12 ... False
CC(=O)C12CC(C)=C(C)CC1CC1C3CCC4=CC(=O)CCC4(C)C3CCC12C (stereo unspecified) ... True

Please share the test call associated with CCC(=O)CC(c1ccc([N+](=O)[O-])cc1)c1c(O)c2ccccc2oc1=O (stereo unspecified) . False

Please share the test call associated with Cc1nc2ccc(N3CCN(C)CC3)cc2nc1C . False

Please share the test call associated with CN1CCC(OC(=O)c2cccc(F)c2)CC1 . False

Please share the test call associated with O=c1[nH]c(=O)n(-c2ccc(F)cc2)c(O)c1C=NCCN1CCCCC1 . False

Please share the test call associated with CCCOC(=O)C1C2c3ccccc3C(c3ccccc32)C1C(=O)O (stereo unspecified) . False

Please share the test call associated with CN1[C@@H]2CC[C@H]1CC(OC(=O)c1cc(Cl)cc(Cl)c1)C2 (stereo partly specified) . True

====

Test: qHTS for Inhibitors of human tyrosyl-DNA phosphodiesterase 1 (TDP1): qHTS in cells in presence of CPT; further: nearly all actives have a fitted effect of over 55% in size
Settings: chicken DT40 Tdp1-/-;hTDP1 cells + 20 nM CPT, ATP luminescence, 48 h; series mostly up to 46.2 µM
Among all 420,000 compounds or so, about 50,000 (12%) were called active. Roughly 26% stayed inconclusive and do not appear here. Calls come from the whole dose curve; as a rule, active = well fitted inhibition curve with a large enough effect; inconclusive = small, poorly fitted or top-dose-only effect; inactive = flat fitted curve, though single readings scatter. The sample as a whole holds a higher share of actives than the screen did.
Answer with one of the outcomes active, inactive

Before answering, review these 5 worked examples.
CCC/C(=N\O)c1c[nH]c2ccccc12 ... inactive
ClC(Cl)(Cl)c1ccccc1 ... inactive
CCOC(=O)C1(c2ccccc2)CCN(CC(O)c2ccc(NC(C)=O)cc2)CC1 (stereo unspecified) ... inactive
CC12CCC3C(CCC4CC(=O)CCC43C)C1CC(=NO)C2=O (stereo unspecified) ... inactive
O=c1[nH]c2ccccc2n1C1CCN(C(c2ccccc2)c2nnnn2Cc2ccccc2)CC1 (stereo unspecified) ... active

Could you now look at the following compound, please?
Please share the test call associated with CN1CCN(Cc2ccc(OC(F)(F)F)cc2)CC1 . inactive

====

Experiment: qHTS for Inhibitors of human tyrosyl-DNA phosphodiesterase 1 (TDP1): qHTS in cells in presence of CPT; further: nearly all actives have a fitted effect of over 55% in size; further: potency means the concentration at half of the fitted maximal effect
Conditions: chicken DT40 Tdp1-/-;hTDP1 cells + 20 nM CPT, ATP luminescence, 48 h; series mostly up to 46.2 µM
The whole screen tested about 420,000 compounds, of which about 50,000 (12%) were called active. Not shown: some 26% with an inconclusive outcome. This excerpt belongs to a sample that is enriched for actives.
Attribute Measured: Potency

Guide cases for Potency, answers given:
CC(C)(C)[C@]1(O)C[C@@H]2OC(=O)C[C@@]23C(=O)O[C@@H]2OC(=O)[C@H](O)[C@]213 ... inactive
CCC(C)(O)C(=O)OC1C(=O)OC2CC3C(C)=CC(=O)C(O)C3(C)C3C4(O)OCC23C1C(C)C4O (stereo not given) ... 116 nM (active)
OCC#CC[N+]1(CC#Cc2ccccc2)CCCC1 ... inactive
CNC(=O)N(C)c1nnc(C(C)(C)C)s1 ... inactive

Pending compound:
Give a short answer stating reported Potency for Cc1ccccc1N1C(=O)NC(=O)/C(=C\c2cc(C)n(C)c2C)C1=O . inactive

====

Experiment: qHTS for Inhibitors of human tyrosyl-DNA phosphodiesterase 1 (TDP1): qHTS in cells in presence of CPT; further: nearly all actives have a fitted effect of over 55% in size
Conditions: chicken DT40 Tdp1-/-;hTDP1 cells + 20 nM CPT, ATP luminescence, 48 h; series mostly up to 46.2 µM
Hit rate of the full screen: of about 420,000 compounds, about 50,000 (12%) were called active. Roughly 26% stayed inconclusive and do not appear here. Calls follow the shape of the dose curve; as a rule, active = well fitted inhibition curve with a large enough effect; inconclusive = small, poorly fitted or top-dose-only effect; inactive = flat fitted curve, though single readings scatter. This excerpt belongs to a sample that is enriched for actives.
Answer with one of the outcomes label 1 = active, label 0 = inactive

Before answering, review these 5 worked examples.
CCC(=O)OC(Cc1ccccc1)(c1ccccc1)C(C)CN(C)C (stereo not drawn) ... label 0
COc1cccc(-c2nc3ccc(N4CCN(C)CC4)cc3[nH]2)c1 ... label 0
CNC(=O)O/N=C(\N)Cc1csc2ccc(Cl)cc12 ... label 1
CC(C(=O)Nc1ccc(Cl)cc1Cl)N1CC=C(c2ccccc2)CC1 (stereo not drawn) ... label 0
CC(C)n1c(=O)c(C=Nc2ccc(Br)cc2)c(O)n(Cc2ccco2)c1=O ... label 0

Please share the test call associated with c1cc2c(cc1CCNC1CCCCCC1)OCO2 . label 0

Please share the test call associated with CC(C)C(N)C(=O)OCCOCn1cnc2c(=O)[nH]c(N)nc21 (stereo not drawn) . label 1

Please share the test call associated with Nc1ccc(Cc2ccc(N)c(Cl)c2)cc1Cl . label 0

Please share the test call associated with C=CCn1c(O)c(/C=N/N2CCOCC2)c(=O)[nH]c1=S . label 0

Please share the test call associated with CCOc1cccc(=NC2CCCCC2)c2c(C)[nH]c(C)c12 . label 1

Please share the test call associated with O=C(CCCn1c(=O)[nH]c2cc(Cl)ccc2c1=O)N1CCC2(CC1)OCCO2 . label 0

====

Test: qHTS for Inhibitors of human tyrosyl-DNA phosphodiesterase 1 (TDP1): qHTS in cells in presence of CPT; further: nearly all actives have a fitted effect of over 55% in size
Settings: chicken DT40 Tdp1-/-;hTDP1 cells + 20 nM CPT, ATP luminescence, 48 h; series mostly up to 46.2 µM
Among all 420,000 compounds or so, about 50,000 (12%) were called active. Another 26% or so got no clear call; they are omitted. The call rests on the fitted dose curve; in most records, active means well fitted inhibition curve with a large enough effect; inconclusive means small, poorly fitted or top-dose-only effect; inactive means flat fitted curve, though single readings scatter. Many of the other results were omitted from the sample, so actives are more common in it than they were.
Answer with one of the outcomes active, inactive

Before answering, review these 5 worked examples.
COC(=O)C1=C(c2cc3ccccc3o2)C[C@@H]2CC[C@H]1N2C(=O)NC1CCCCC1 ... active
COc1ccc(-c2cc(NC=O)c3ncc(-c4cc(OC)c(OC)c(OC)c4)n3c2)c(OC)c1 ... active
CC(CCC(=O)O)C1CCC2C3C(O)C[C@@H]4CC(O)CC[C@@]4(C)C3CC[C@@]12C (stereo partly specified) ... inactive
Cc1cccc2c3c(ccc12)C1=C(C(=O)C3=O)C(C)CO1 (stereo unspecified) ... active
COc1cccc(C(=O)N2C[C@H]3C[C@@H](C2)c2cccc(=O)n2C3)c1 ... inactive

Please share the test call associated with Cc1cccc(-n2c(C)nc3cc(C(=O)N4CCC5(CC4)OCCO5)ccc32)c1 . active

Please share the test call associated with O=C(COc1ccccc1Cl)Nc1ccc2nc(SCC(=O)N3CCCC3)sc2c1 . active

Please share the test call associated with N[C@@H](Cc1c[nH]c2ccccc12)c1nnc(SCc2c(F)cccc2Cl)o1 . inactive

Please share the test call associated with CN(C(=O)CSc1nc2ccc(NC(=O)COc3ccccc3)cc2s1)c1ccccc1 . active

Please share the test call associated with COc1ccccc1C1=NCc2nnc(CSC)n2-c2ccc(Cl)cc21 . inactive

Please share the test call associated with COC(=O)C1=C(c2cc3ccccc3s2)C[C@@H]2CC[C@H]1N2C(=O)NCCO . inactive

Please share the test call associated with Cn1c(O)c(C=Nc2ccc3c(c2)CCC3)c(=O)n(C)c1=O . inactive

Please share the test call associated with CCCC(C)n1[nH]c(=O)c2c1NC(=O)CSC2c1ccc(OC)c(OC)c1 (stereo unspecified) . inactive

Please share the test call associated with C[N+]1(C)CCOC(O)(c2ccc(-c3ccc(C4(O)C[N+](C)(C)CCO4)cc3)cc2)C1 (stereo unspecified) . inactive
